# Test system: stress ulcer
# Protocol notes: WIS: Restraint and Water Immersion Stress-Induced Ulcer Inhibition Test
# Assay type: in vivo, male Crj:SD or Slc:SD rats
# Measurement context: rat, 100 mg/kg oral, 7 h water immersion stress; read-out: ulcer formation inhibitory rate (WIS)
inhibition in vivo at 100 mg/kg class ranges: low-valued: < 70%; mid-valued: ≥ 70% and < 80%; high-valued: ≥ 80%

Challenge: Which class holds CCN1CCCC1CNC(=O)c1ccc(OC/C=C(\C)CCC=C(C)C)c(OC/C=C(\C)CCC=C(C)C)c1 (stereo not drawn) ?
Response given: mid-valued

Challenge: Which class holds CCN1CCCC1CNC(=O)c1cc(OC)c(OC/C=C(\C)CCC=C(C)C)c(OC)c1 (stereo not drawn) ?
Response given: mid-valued

Challenge: Which class holds CCN1CCCC1CNC(=O)c1ccc(OCC=C(C)C)nc1 (stereo not drawn) ?
Response given: low-valued

Challenge: Which class holds CCN1CCCC1CNC(=O)c1ccc(OCC=C(C)C)cc1 (stereo not drawn) ?
Response given: high-valued

Challenge: Which class holds CCN1CCCC1CNC(=O)c1cc(OCC=C(C)C)c(OCC=C(C)C)c(OCC=C(C)C)c1 (stereo not drawn) ?
Response given: low-valued

Challenge: Which class holds CCN1CCCC1CNC(=O)c1cc(OC)ccc1OC/C=C(\C)CCC=C(C)C (stereo not drawn) ?
Response given: high-valued

---

# System: stress ulcer
# Protocol notes: WIS: Restraint and Water Immersion Stress-Induced Ulcer Inhibition Test
# Assay type: in vivo, male Crj:SD or Slc:SD rats
# Measurement context: rat, 100 mg/kg oral, 7 h water immersion stress; read-out: ulcer formation inhibitory rate (WIS)
Classify as follows. Reported inhibition in vivo at 100 mg/kg greater than or equal to 80%: t. Reported inhibition in vivo at 100 mg/kg below: f.

Challenge: Reported inhibition in vivo at 100 mg/kg reaches at least 80% for CCN1CCCC1CNC(=O)c1ccc(OC/C=C(\C)CCC=C(C)C)c(OC)c1 (stereo not drawn) [Example 16] ?
Response given: f

Challenge: Reported inhibition in vivo at 100 mg/kg reaches at least 80% for CCN1CCCC1CNC(=O)c1cccnc1OCC=C(C)C (stereo not drawn) [Example 25] ?
Response given: t

Challenge: Reported inhibition in vivo at 100 mg/kg reaches at least 80% for CCN1CCCC1CNC(=O)c1cc(OC/C=C(\C)CCC=C(C)C)ccc1OC/C=C(\C)CCC=C(C)C (stereo not drawn) [Example 10] ?
Response given: f

Challenge: Reported inhibition in vivo at 100 mg/kg reaches at least 80% for CCN1CCCC1CNC(=O)c1ccccc1OC/C=C(\C)CCC=C(C)C (stereo not drawn) [Example 2] ?
Response given: t

Challenge: Reported inhibition in vivo at 100 mg/kg reaches at least 80% for CCN1CCCC1CNC(=O)c1ccc(OC)cc1OC/C=C(\C)CCC=C(C)C (stereo not drawn) [Example 18] ?
Response given: f

Challenge: Reported inhibition in vivo at 100 mg/kg reaches at least 80% for CCN1CCCC1CNC(=O)c1ccc(OCC=C(C)C)c(OCC=C(C)C)c1 (stereo not drawn) [Example 7] ?
Response given: t

Challenge: Reported inhibition in vivo at 100 mg/kg reaches at least 80% for CCN1CCCC1CNC(=O)c1ccc(OC/C=C(\C)CCC=C(C)C)nc1 (stereo not drawn) [Example 27] ?
Response given: t

Challenge: Reported inhibition in vivo at 100 mg/kg reaches at least 80% for CCN1CCCC1CNC(=O)c1ccc(OC/C=C(\C)CCC=C(C)C)cc1OC/C=C(\C)CCC=C(C)C (stereo not drawn) [Example 9] ?
Response given: f

Challenge: Reported inhibition in vivo at 100 mg/kg reaches at least 80% for CCN1CCCC1CNC(=O)c1ccc(OC/C=C(/C)CCC=C(C)C)cc1 (stereo not drawn) [Example 4] ?
Response given: f

Challenge: Reported inhibition in vivo at 100 mg/kg reaches at least 80% for CCN1CCCC1CNC(=O)c1ccc(OC)c(OC/C=C(\C)CCC=C(C)C)c1 (stereo not drawn) [Example 15] ?
Response given: t

Challenge: Reported inhibition in vivo at 100 mg/kg reaches at least 80% for CCN1CCCC1CNC(=O)c1cc(OCC=C(C)C)ccc1OCC=C(C)C (stereo not drawn) [Example 6] ?
Response given: t

Challenge: Reported inhibition in vivo at 100 mg/kg reaches at least 80% for CCN1CCCC1CNC(=O)c1cc(F)ccc1OC/C=C(\C)CCC=C(C)C (stereo not drawn) [Example 20] ?
Response given: t

---

# Test system: stress ulcer
# Protocol notes: WIS: Restraint and Water Immersion Stress-Induced Ulcer Inhibition Test
# Type: in vivo, male Crj:SD or Slc:SD rats
# Measurement context: rat, 100 mg/kg oral, 7 h water immersion stress; read-out: ulcer formation inhibitory rate (WIS)
Provide the reported inhibition in vivo at 100 mg/kg of each item.
Number only, in %; omit the unit.

Memo: CCN1CCCC1CNC(=O)c1ccc(OCC=C(C)C)cc1OCC=C(C)C (stereo not drawn) , reported inhibition in vivo at 100 mg/kg: 70

Memo: CCN1CCCC1CNC(=O)c1cc(OC)c(OC)c(OCC=C(C)C)c1 (stereo not drawn) , reported inhibition in vivo at 100 mg/kg: 79

Memo: CCN1CCCC1CNC(=O)c1ccccc1SC/C=C(\C)CCC=C(C)C (stereo not drawn) , reported inhibition in vivo at 100 mg/kg: 81

---

Provide the reported inhibition in vivo at 100 mg/kg of each item.
# Tested on: stress ulcer
# Protocol notes: WIS: Restraint and Water Immersion Stress-Induced Ulcer Inhibition Test
# Type: in vivo, male Crj:SD or Slc:SD rats
# Measurement context: rat, 100 mg/kg oral, 7 h water immersion stress; read-out: ulcer formation inhibitory rate (WIS)
Value and unit, in that order.

Memo: CCN1CCCC1CNC(=O)c1cc(OC/C=C(\C)CCC=C(C)C)cc(OC/C=C(\C)CCC=C(C)C)c1 (stereo not drawn) , reported inhibition in vivo at 100 mg/kg: 82%

Memo: CCN1CCCC1CNC(=O)c1cc(OC)c(OC)c(OC/C=C(\C)CCC=C(C)C)c1 (stereo not drawn) , reported inhibition in vivo at 100 mg/kg: 80%

Memo: CCN1CCCC1CNC(=O)c1ccc(OC/C=C(\C)CCC=C(C)C)cc1 (stereo not drawn) , reported inhibition in vivo at 100 mg/kg: 80%

Memo: CCN1CCCC1CNC(=O)c1cc(OC)c(OCC=C(C)C)c(OC)c1 (stereo not drawn) , reported inhibition in vivo at 100 mg/kg: 79%

Memo: CCN1CCCC1CNC(=O)c1cccc(OC)c1OC/C=C(\C)CCC=C(C)C (stereo not drawn) , reported inhibition in vivo at 100 mg/kg: 82%

Memo: CCN1CCCC1CNC(=O)c1cc(OCC=C(C)C)cc(OCC=C(C)C)c1 (stereo not drawn) , reported inhibition in vivo at 100 mg/kg: 81%
